Where do the numbers come from? From ChEMBL document CHEMBL1138225.

System: Neuronal acetylcholine receptor; alpha3/beta4 (Homo sapiens, UniProt P30926+P32297)
Assay method text: Maximal agonist activity at human alpha-3-beta-4 ACHR expressed in HEK293 cells assessed as change in intracellular calcium concentration by FLIPR relative to nicotine
Assay type: functional, cell-based
Measured Activity, listed per entry for reference.
Outcome measure: Activity

Molecule | Outcome measure | Result
N#Cc1cc(N2C[C@@H]3CCNC[C@@H]32)cnc1Br | Activity | 88%
COc1cc(N2C[C@H]3CCNC[C@H]32)cnc1Br | Activity | 98%
N#Cc1cncc(N2CC[C@@H]3CN[C@@H]3C2)c1 | Activity | 116%
N#Cc1cncc(N2CC[C@H]3CN[C@H]3C2)c1 | Activity | 127%
NC(=O)c1cc(N2C[C@@H]3CCNC[C@@H]32)cnc1Br | Activity | 73%
Brc1cc(N2CC[C@@H]3CN[C@@H]3C2)cnc1Br | Activity | 100%
Cc1cc(N2CC[C@@H]3CN[C@@H]3C2)cnc1Cl | Activity | 103%
c1cncc(N2C[C@@H]3CCNC[C@@H]32)c1 | Activity | 98%
c1ncc(N2C[C@@H]3CCNC[C@@H]32)cn1 (single isomer, unassigned) | Activity | 93%
COc1cncc(N2CC[C@H]3CN[C@H]3C2)c1 | Activity | 103%
Cc1cc(N2CC[C@H]3CN[C@H]3C2)cnc1Cl | Activity | 123%
